Tested on: MCF7
assay_name: Antiproliferative activity against human MCF7 cells after 48 hrs by sulforhodamine B assay
Assay type: functional, cell-based
assay_setup: MCF7, 48 h
value_type: IC50 (µM)

* COc1cc(Nc2nc(C3=CCN(C(=O)N4CCCC4)CC3)nc(N3CCOCC3)n2)cc(OC)c1OC | 34
* COc1cc(Nc2nc(C3=CCN(C(=O)c4cnccn4)CC3)nc(N3CCOCC3)n2)cc(OC)c1OC | 39.4
* COc1cc(Nc2nc(C3=CCN(S(=O)(=O)c4ccc(C)cc4)CC3)nc(N3CCOCC3)n2)cc(OC)c1OC | 42.1
* COc1cc(Nc2nc(C3=CCN(C(=O)Cc4c[nH]c5ccccc45)CC3)nc(N3CCOCC3)n2)cc(OC)c1OC | 29.8
* COc1ccc(C(=O)N2CC=C(c3nc(Nc4cc(OC)c(OC)c(OC)c4)nc(N4CCOCC4)n3)CC2)cc1 | 32.1

[I] COc1cc(Nc2nc(C3=CCN(C(=O)c4ccc(Cl)cc4)CC3)nc(N3CCOCC3)n2)cc(OC)c1OC
[II] COc1ccc(NC(=O)N2CC=C(c3nc(Nc4cc(OC)c(OC)c(OC)c4)nc(N4CCOCC4)n3)CC2)cc1
Param metric = IC50; output whichever of I , II has the minimum value. Selection: enter the item's label.
II
(II: 26.4 µM, I: 38.3 µM)

[a] COc1cc(Nc2nc(C3=CCN(S(=O)(=O)c4ccccc4[N+](=O)[O-])CC3)nc(N3CCOCC3)n2)cc(OC)c1OC
[b] COc1cc(Nc2nc(C3=CCN(S(=O)(=O)c4ccc(Br)s4)CC3)nc(N3CCOCC3)n2)cc(OC)c1OC
Compare a and b by numeric IC50 and name the larger one. In your reply, give the label of the chosen option.
a
(a: 50.5 µM, b: 30.6 µM)
